Answer each item with its documented EC50.
System: Cowpox virus (Brighton)
experimental.details: microbe, parasite or virus in culture
Assay type: cell-based
condition.parameters: Cowpox virus, HEL, read-out: EC50 Cowpox virus Brighton

Q: Given the compound Nc1ccn(C[C@@H](CO)OCP(=O)(O)O)c(=O)n1 [HPMPC, reference compound] , what is its reported EC50?
Ans: 8.43 µg/mL

Q: Given the compound CCCCCCCCCCCCCCCCOCCOP1(=O)CO[C@@H](Cn2cnc(N)nc2=O)CO1 (stereo partly drawn) [Compound 12] , what is its reported EC50?
Ans: < 0.032 µg/mL

Q: Given the compound Nc1ncn(C[C@H]2COP(=O)(O)CO2)c(=O)n1 [Compound 11] , what is its reported EC50?
Ans: 5.64 µg/mL

Q: Given the compound Nc1ncn(C[C@@H](CO)OCP(=O)(O)O)c(=O)n1 [Compound 3] , what is its reported EC50?
Ans: 4.72 µg/mL

Q: Given the compound Nc1cnn(C[C@@H](CO)OCP(=O)(O)O)c(=O)n1 [HPMP-6-azaC analogue] , what is its reported EC50?
Ans: > 100 µg/mL

Q: Given the compound NC(=NC(=O)NC[C@@H](CO)OCP(=O)(O)O)NC=O.[Na] [Compound 3a] , what is its reported EC50?
Ans: 12.6 µg/mL
